Assay Target: Proteasome subunit beta (Trypanosoma cruzi) (UniProt O96673)
Sequence (O96673 as listed by the source): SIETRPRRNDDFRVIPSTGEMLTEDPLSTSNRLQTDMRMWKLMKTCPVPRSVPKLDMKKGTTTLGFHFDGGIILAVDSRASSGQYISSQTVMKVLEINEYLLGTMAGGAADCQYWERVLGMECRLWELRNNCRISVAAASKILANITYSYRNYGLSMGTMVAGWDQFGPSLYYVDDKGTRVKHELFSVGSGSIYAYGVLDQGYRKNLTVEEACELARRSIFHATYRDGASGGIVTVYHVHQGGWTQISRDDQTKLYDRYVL
Assay Details: Trypanosoma cruzi proteasome chymotrypsin-like activity (TcProtChymo) assay. Note: in the data most compounds retested in dose-response had high values.
Assay type: functional
Design: scale not given: direction of the effect not stated beside the values
Condition Context: 9.37 µM
Value Kind: Percent Effect (%)
Lab book: enter the figure in %, no units written.

Some compounds with known Percent Effect results, for comparison:
CCN(Cc1ccc2c(c1)OCCO2)C(=O)NC(C)Cn1ccnc1 (stereo not given) | 10.8
CC(NC(=O)N1CCN(c2ccc(Cl)cc2)CC1)C(=O)N1CCSCC1 (stereo not given) | 17.8
Cc1cc(C)nc(Nc2cc(C3CCCN(C)C3)nc(C)n2)n1 (stereo not given) | 9.2
CC(C)CCCNC(=O)Nc1ccc(F)c(C(N)=O)c1 | 12.3
CN(Cc1cc2c(cc1OC(F)F)OCO2)Cc1nccn1C | 5.58

Name the recorded Percent Effect for CC(C)(C)c1noc(CN2CCN(C(=O)c3cccs3)CC2)n1 .
10.3

Name the recorded Percent Effect for COC(=O)CCN1CCCC1c1cccc2c1OCCO2 (stereo not given) .
-1.92

Name the recorded Percent Effect for Cc1cc(C[C@@H]2COC[C@@H]2NC(=O)CN2CCCN(C)CC2)on1 .
13.3

Name the recorded Percent Effect for Cn1nc2c(cc1=O)CN(Cc1nnc(C3CC3)o1)CC2 .
6.91

Name the recorded Percent Effect for CNC(=O)[C@H]1C[C@@H]2CN(S(=O)(=O)c3ccccc3)C[C@@H]2N1C .
1.83

Name the recorded Percent Effect for Fc1ccccc1-c1noc2c1CN(CC1CC1)CC2 .
17

* * *

Assay Target: Ubiquitin-activating enzyme e1, putative (Leishmania donovani (strain BPK282A1)) (UniProt E9BSI1)
Sequence (whole entry): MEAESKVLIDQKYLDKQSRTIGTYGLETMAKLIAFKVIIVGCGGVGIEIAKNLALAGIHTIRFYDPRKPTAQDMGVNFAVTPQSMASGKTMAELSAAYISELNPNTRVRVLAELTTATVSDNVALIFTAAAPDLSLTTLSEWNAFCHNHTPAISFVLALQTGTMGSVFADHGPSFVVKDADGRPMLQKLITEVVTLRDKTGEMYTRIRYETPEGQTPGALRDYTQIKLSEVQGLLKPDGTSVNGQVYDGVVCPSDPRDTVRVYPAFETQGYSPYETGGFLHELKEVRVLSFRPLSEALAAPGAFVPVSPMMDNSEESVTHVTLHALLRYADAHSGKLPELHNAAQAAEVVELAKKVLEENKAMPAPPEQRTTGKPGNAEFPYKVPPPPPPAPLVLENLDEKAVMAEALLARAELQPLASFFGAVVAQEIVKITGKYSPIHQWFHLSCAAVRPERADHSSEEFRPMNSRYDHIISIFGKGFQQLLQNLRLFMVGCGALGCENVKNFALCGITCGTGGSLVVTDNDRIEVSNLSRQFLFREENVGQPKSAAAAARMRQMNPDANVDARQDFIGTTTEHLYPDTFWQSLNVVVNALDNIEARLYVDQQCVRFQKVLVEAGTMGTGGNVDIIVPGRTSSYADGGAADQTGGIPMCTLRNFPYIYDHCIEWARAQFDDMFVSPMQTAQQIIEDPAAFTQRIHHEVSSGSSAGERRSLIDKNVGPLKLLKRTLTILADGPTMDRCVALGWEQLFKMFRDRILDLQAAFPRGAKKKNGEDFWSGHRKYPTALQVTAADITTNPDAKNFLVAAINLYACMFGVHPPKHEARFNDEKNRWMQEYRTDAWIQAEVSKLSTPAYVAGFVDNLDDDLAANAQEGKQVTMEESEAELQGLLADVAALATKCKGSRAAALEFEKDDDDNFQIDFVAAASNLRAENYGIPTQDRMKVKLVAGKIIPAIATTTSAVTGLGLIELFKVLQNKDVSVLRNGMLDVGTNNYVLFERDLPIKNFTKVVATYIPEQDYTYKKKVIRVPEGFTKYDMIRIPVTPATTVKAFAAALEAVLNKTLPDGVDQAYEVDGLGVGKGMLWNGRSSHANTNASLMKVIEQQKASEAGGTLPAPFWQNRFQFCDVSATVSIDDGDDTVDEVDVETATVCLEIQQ
Assay Details: Leishmania donovani Ubiquitin Activating Enzyme (LdE1)
Format: functional
Set-up: scale not given: direction of the effect not stated beside the values
Condition Context: 30 µM
Potency and affinity values are given separately.
Value Kind: Percent Effect (%)
Lab book: enter the figure in %, no units written.

Some compounds with known Percent Effect results, for comparison:
Cc1cc(C)n(CC2CN(Cc3cccc(C(N)=O)c3)CCO2)n1 (centres undefined) | 16.2
COc1ccc(CN2C[C@H]3CN(c4ccsc4)C(=O)[C@H]3C2)cc1 | 0
CC(C)c1cc(NC(=O)CN2CCc3c(nc(C(C)C)n3C)C2)on1 | 0
CC1(C)Cc2ccccc2-c2nc(NCCO)[nH]c(=O)c21 | 13.2
CC(=O)N1CCc2c(nc(-c3ccccn3)nc2N(C)CC(O)CO)C1 (centres undefined) | 8.11
Cc1ccc(-c2nc(CN3CCOC(Cn4cccn4)C3)cs2)o1 (centres undefined) | 2.7
COc1cccc2c1OCC(C(=O)N1CCN(S(C)(=O)=O)CC1)C2 (centres undefined) | 16.2
CN1[C@H](CN2CCCC2)C[C@@H]2CN(C(=O)Cc3cccs3)CC[C@@H]21 | 16.9

Switching to the query record.
Name the recorded Percent Effect for Cc1ccc(C(C)NC(=O)Nc2ccccc2CN2CCOCC2)o1 (centres undefined) .
5.41
